This collection of values is drawn from the array DNA melting data of Ke et al. (doi:10.1101/2024.01.08.574731).

Please provide measured Tm for the entries that follow.
Test: melting temperature; fluorescence melt of hairpins on a sequencing array, two-state fit, raised by 9.35 °C to match UV melts
Conditions: sodium 0.088 M
Numbers only, in °C.

For every item in the list below, what is its measured Tm?
1. GTTAGTGAAAACTAAC ((((((....))))))
2. GTGGATCGAAAGATCAC (((.(((....))))))
3. GATCTAGAATAGATC ((((((...))))))
4. GATCTGGATTCAGATC ((((((....))))))
5. GACAACGAAAGTTGTGTC ((((((....)))..)))
6. GCATTCCGAAAGGAGTGC (((.(((....))).)))
7. GGATCCGGAAACGGGTTC (.(.(((....))).).)
8. GTAGTACCGAAAGGTTAC (((..(((....))))))

1: 49.3; 2: 48.8; 3: 49.9; 4: 48.6; 5: 50.6; 6: 58.4; 7: 38; 8: 29.8

Can you look up the measured Tm of GCGCAGCGAAAGCGACGC (((..((....))..))) for me?
57.6

###

Test: folding enthalpy; higher = less favourable; fluorescence melt of hairpins on a sequencing array, two-state fit
Settings: sodium 0.088 M
Measured endpoint: folding enthalpy (kcal/mol)
Give bare numbers, in kcal/mol.

Macromolecule sequence	Quantity unit	folding enthalpy
GAGACGCGAAAGCGCCTC (((.(((....))).)))	kcal/mol	-30.3

Please state folding enthalpy for every sequence in the list that follows.
1. GATTTCCCGAAAGGGATC (((..(((....))))))
2. GATCCCTATAGGGATC ((((((....))))))
3. GGAAGCTCGAAAGAGTCC (((..(((....))))))
4. GGCGGCGAAAGCCAAGCC ((((((....)))..)))
5. GGGTAGGCGAAAGCCCCC (((..(((....))))))
6. GCTCGGCGAAAGCCACGC ((..(((....)))..))

-10.4
-45.4
-11.6
-25.5
-16.9
-11.5

###

Would you kindly list Tm for each of these sequences?
Assay: melting temperature; fluorescence melt of hairpins on a sequencing array, two-state fit, raised by 9.35 °C to match UV melts
Details: sodium 0.088 M
Could you kindly put the unit after your number?

# example entries with known answers
Macromolecule sequence	Tm
GATCTAGGAAACTAGGTC ((.((((....)))).))	38.6 °C
GCAACTGAAAAGTTGC ((((((....))))))	62.5 °C
GATCACAGGGGTGATC ((((((....))))))	56.2 °C
AGATTGAAAAATCT (((((....)))))	28.9 °C
GCACTGCGAAAGCATGC (((.(((....))))))	53.1 °C
GCGATATGTCGC ((((....))))	55 °C

List the reported Tm of each sequence below.
1. GACAGTGAAAACTGTC ((((((....))))))
2. GAATGAGGAAACCCATTC (((((.(....).)))))
3. GCCTACTCGAAAGAGGGC (((..(((....))))))
4. GCGACTGGTCGC ((((....))))
5. GTGCTGCCGAAAGGCCAC (((..(((....))))))
6. GATCCTAGCGAGGATC ((((((....))))))

1: 56.4 °C; 2: 36.1 °C; 3: 44.1 °C; 4: 60.3 °C; 5: 48.1 °C; 6: 52.8 °C

###

Give measured Tm for each item. Keep answers brief.
Experiment: melting temperature; fluorescence melt of hairpins on a sequencing array, two-state fit, raised by 9.35 °C to match UV melts
Settings: sodium 0.088 M
Numbers only, in °C.

The examples below pair each entry with its known result.
Macromolecule sequence	Quantity unit	Result
GGTCTAGGAAACTAGGCC ((.((((....)))).))	°C	51.1
GCACAGCGAAAGCGATGC (((..((....))..)))	°C	51.6
GCTAGAGGAAACTCTAAC (.(((((....))))).)	°C	24.8
GTCGCCGAAAGGCGTGAC ((((((....)))..)))	°C	36.3

Fill in the blank: the reported Tm of GGTATCGAAAGATGGACC ((((((....)))..))) is ____.
28.9

###

Assay: folding enthalpy; higher = less favourable; fluorescence melt of hairpins on a sequencing array, two-state fit
Conditions: sodium 0.088 M
Parameter threshold = -30 kcal/mol. Response is 1.0 when folding enthalpy meets or exceeds it, else 0.0.

Macromolecule sequence	Class label
GGTACCCGAAAGGGCACC (((.(((....))).)))	0.0
GACGGGGGAAACCCCGCC (.(((((....))))).)	1.0
GCTATCCGAAAGGAAAGC (((.(((....))).)))	0.0
GCCATAGCGAAAGCTGGC (((..(((....))))))	1.0
GGTGTGACGAAAGTCACC (((..(((....))))))	1.0
GATCGGTAACCGATC ((((((...))))))	0.0
GGAGCTGGAAACAGCTTC (.(((((....))))).)	1.0
CGCCCGGAAACGGGGGCG ((((((....)))..)))	1.0

Can GATACCGGAAACGGTACC (.(((((....))))).) be said to have folding enthalpy at or above -30 kcal/mol?
1.0

// query: GATCGTACCACGATC ((((((...))))))
0.0

Here is the next sequence: GTGGAACGAAAGTTACAC (((.(((....))).)))
0.0

What would you report for GGAAAGCGAAAGCTGTCC (((.(((....))).))) ?
1.0

Note, next up: GATCCAGACTGGATC ((((((...))))))
0.0

###

Experiment: melting temperature; fluorescence melt of hairpins on a sequencing array, two-state fit, raised by 9.35 °C to match UV melts
Conditions: sodium 0.088 M
Would you mind telling me the reported Tm of each entry?
One number for each entry, in °C.

Worked examples, 5 sequences total:
Macromolecule sequence	Tm, °C
GGGATCCCGAAAGGGCCC (((..(((....))))))	45
GTAGGCGAAAGCCTGTAC ((((((....)))..)))	34.6
GGTTACGAAAGTAAACC ((((((....))).)))	48.8
GATCTGGGAAACCAGGTC ((.((((....)))).))	48.4
GCTACCGGAAACGGTGGC ((.((((....)))).))	60

Answer for every listed entry: what is its Tm? The entries follow.
1. GTGTCATCGAAAGATCAC (((..(((....))))))
2. GATCGATCTATCGATC ((((((....))))))

32.4
56.3

###

Experiment: folding enthalpy; higher = less favourable; fluorescence melt of hairpins on a sequencing array, two-state fit
Settings: sodium 0.088 M
Provide the reported folding enthalpy of each item.

Record excerpt, results attached:
Macromolecule sequence	folding enthalpy
GCAATGCGAAAGCAGGGC ((..(((....)))..))	-25.4 kcal/mol
GATCTTGTTAAGATC ((((((...))))))	-30.1 kcal/mol
GATCCAGAATTGGATC ((((((....))))))	-34.7 kcal/mol
GATCACAACGGTGATC ((((((....))))))	-38.7 kcal/mol

So what does the record say about folding enthalpy for GGCTTCGAAAGAATGGCC ((((((....)))..))) ?
-25.2 kcal/mol

###

Assay: folding enthalpy; higher = less favourable; fluorescence melt of hairpins on a sequencing array, two-state fit
Settings: sodium 0.088 M
Measured endpoint: folding enthalpy (kcal/mol)
Answers are plain numbers, in kcal/mol.

Macromolecule sequence	folding enthalpy [kcal/mol]
CGCAGGCGGAAACGCGCG (((..(((....))))))	-23
GCTCGCGAAAGCGGGAGC ((((((....)))..)))	-15.7
GCTATGCGAAAGCGCAGC (((..((....))..)))	-18
GTTGACGAAAGTCAAAAC ((((((....)))..)))	-11.5
GATCAGGCTCTGATC ((((((...))))))	-35.2

Please look at the items below and tell me folding enthalpy for each one, in order.
1. GTGGGAGAAATCCCAC ((((((....))))))
2. GATCAAGGGTTTGATC ((((((....))))))
3. CGCGGAACGCTCCGCG ((((((....))))))

-28.3
-26.2
-28.9

// each sequence listed below needs its folding enthalpy
1. GATCAAACCTTGATC ((((((...))))))
2. GATCTGCAACAGATC ((((((...))))))
3. GGCCCCGAAAGGGTAGCC ((((((....)))..)))
4. GGTCTCGAAAGAGTCACC ((((((....)))..)))

1. -29.1
2. -28.8
3. -23.7
4. -14.6

Hey, quick one: what's folding enthalpy for each of these?
1. CGGGCGGAAACGCCACCG ((((((....)))..)))
2. GGTACCGAAAGGTTTACC ((((((....)))..)))
3. GCGTTGCGAAAGCATGGC ((..(((....)))..))
4. GTCCCCGAAAGGGTAGAC ((((((....)))..)))
5. GATCAAGAGCTTGATC ((((((....))))))
6. GCTATGCGAAAGCAAAGC (((.(((....))).)))

1. -9.3
2. -13.8
3. -18.9
4. -16.1
5. -38.2
6. -36

If you can, please state the reported folding enthalpy value of GTTCGCGAAAGCGCAAC ((((((....))).))) .
-13.9
